# protocol description: yeast display, Sf9 membrane polyspecificity reagent, FACS + sequencing; frameworks hold sequencing errors
measurement label: polyreactivity (PSR sort gate)

QVQLVESGGGLVQAGGSLRLSCAASGSTFPANAMGWYRPAPGKERELVAAISSVGSTNYADSVKGRFTISRDNAKNTVYLQMNSLKPEDTAVYYCATQPTWYTVGDLDYWGQGTQVTVSS : low polyreactivity
QDQLVESGGGLVQAGGSLRLSCAASGGIFKSNTMGWDRTAHGKERELVAAITYSDGGTYYADSVKGRFTISRDNAKNTVYLQMNSLTPEDTAVYYCAVDYDTFYWHHYPGEIDHWGQGTQVNVSS : low polyreactivity
QVQLVESGGGLVQAGGSLRLSCAASGFIFYYNTMGWYRQAPGKERELVAAINSGGSTYYADSVKGRFTISRDNAKNTVYLQMNSLKPEDTAVYYCAKRYAVSSRYYYWGQGTQVTVSS : high polyreactivity
QVLLVESGGGLVQAGGSLRLSCAASGFTFNRYDMVWYRQAPGTEREKVARITRGGSTKYADSVKGRFTISRDNAKNTVYLQMKSLKPEDTPVSYCAAGPVKRYVVQGNYWGQGTQVTVSS : high polyreactivity

# input for lookup
// polyreactivity (PSR sort gate) value for QVQLVESGGGLVQAGGSLRLSCAASGFTYYHNAMGWYRQAPGKERELVAAISSSGDSTYYADSVKGRFTISRDNAKNTVYLQMKSLKPEDTAVYYCNDYFYYLSLYYYYWFNYDYWGQGTQVTVSS : low polyreactivity
